From: PubChem BioAssay

testedOn: Carbonic anhydrase 2 (Homo sapiens) (UniProt P00918)
experimentalDetails: CAII small-molecule binders, profiling panel, biochemical, small-molecule microarray, Alexa647-labelled CAII (AID 1122)
conditionParameters: CAII-A647 binding fluorescence, higher = more signal
readout: composite z-score
Just the number, please.

Check out these entries, answers already filled in.
molecule	composite z-score
COC(=O)[C@@H]1CC[C@H](C)[C@@H](c2ccc(C)cc2)N1C(=O)c1ccc(C=NOC[C@H]2O[C@H](c3ccccc3)C=C[C@@H]2Oc2ccc(OC)cc2)cc1	-0.145
CC(CCN1CCCc2nc(C)c(C)cc21)=NO[C@H](C)c1cn([C@H](CO)Cc2ccccc2)nn1	0.236
COc1ccc(O[C@H]2C=C[C@@H](C#Cc3ccccc3)O[C@@H]2CO)cc1	0.314
CCN(CC)CC(O)CN1CCCCc2nc(C)c(C)cc21 (configuration not stated)	0.367
CC(CCC(=O)OC[C@H]1O[C@H](C#Cc2ccccc2)C=C[C@@H]1Oc1ccc(C)cc1)=NOC(C)CN1CCCCc2nc(C)c(C)cc21 (some centres not stated)	0.346
COC(=O)[C@H](C)NC(=O)CCC1CC(OC(=O)NCCc2ccc(F)cc2)CC2(CCCC(COC(=O)NCc3ccccc3)O2)O1 (some centres not stated)	0.266

Query: Give the reported composite z-score for CCOC(=O)CCN1C(=O)[C@H]2[C@H]3[C@H](O)[C@H](O)CC(=NO[C@@H]4O[C@H](CO)[C@@H](O)[C@H](O)[C@H]4O)[C@H]3CC[C@H]2C1=O (system: Carbonic anhydrase 2 (Homo sapiens) (UniProt P00918)).
Response: 0.197

* * *

Below, each of the compounds is paired with its reported composite z-score value.
experimentalDetails: binders of probe aFGF2 on microarray, primary screen, stem cell growth factor project, biochemical, small-molecule microarray, fluorescence 635/667 (AID 1067);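 note: measures binding of biotinylated aFGF2 protein to printed compounds on slides; z-score merges feature fluorescence and signal-to-noise across triplicate slides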
conditionParameters: higher = more signal
Just the number, please.

Check out these entries, answers already filled in.
compound	experimentalResult
O=C1C[C@H](c2ccccc2)[C@H](c2ccc(Br)cc2)O1	-0.0761
CO[C@@H](C(C)C)[C@@H](C)C1OC(=O)CC1O (some centres not stated)	-0.15
CO[C@@H]1[C@H](O)CO[C@H]1C=Cc1ccccc1	-0.0715
CC1(C)O[C@H]2O[C@H]([C@H](O)CON=C3[C@H]4CCn5c(=O)n(-c6ccccc6)c(=O)n5[C@H]4[C@H](O)[C@@H]4O[C@H]34)[C@H](O)[C@H]2O1	-0.154
COC(=O)[C@@H]1CC[C@H](C)[C@@H](c2ccc(C)cc2)N1C(=O)c1ccc(C=NOC[C@@H](O)[C@H]2O[C@@H]3OC(C)(C)O[C@@H]3[C@H]2O)cc1	-0.0138

Query: Endpoint output: composite z-score of C#CCCCON=C1C[C@@H](O)[C@@H](O)[C@@H]2[C@@H]3C(=O)N(C[C@@H]4CCCO4)C(=O)[C@@H]3CC[C@H]12 . Value?
Response: -0.168

Query: Endpoint output: composite z-score of COCCNC(=O)OCC1CCCC2(CC(OC(=O)NCc3cccc4ccccc34)CC(CCC(=O)N[C@@H](C)C(=O)OC)O2)O1 (some centres not stated) . Value?
Response: -0.0692

Query: Endpoint output: composite z-score of C=CC[C@@H]1C=C[C@H](ON=C(C)CCN2CCCCc3nc(C)c(C)cc32)[C@@H](CO)O1 . Value?
Response: -0.0704

Query: Endpoint output: composite z-score of COc1ccc(OC[C@@H]2CC3[C@@H](c4ccc(Br)cc4)[C@H](C)CC[C@H]3C(=O)O2)cc1 (some centres not stated) . Value?
Response: -0.142

Query: Endpoint output: composite z-score of COc1ccc(OC[C@@H](CO)OC)cc1 . Value?
Response: -0.0512

Query: Endpoint output: composite z-score of CC(C)(C)N1C(=O)[C@H]2[C@H]3[C@H](O)[C@H](O)CC(=NOC[C@@H](O)COCc4ccco4)[C@H]3CC[C@H]2C1=O . Value?
Response: -0.0423

Query: Endpoint output: composite z-score of CCCC[C@H]1CN2[C@@H](CC[C@@H](C)[C@@H]2c2ccc(Br)cc2)C(=O)O1 . Value?
Response: -0.0894

Query: Endpoint output: composite z-score of COC(=O)[C@H](C)NC(=O)CCC1CC(OC(=O)NCc2cccc3ccccc23)CC2(CCCC(COC(=O)NCCCN3CCCC3=O)O2)O1 (some centres not stated) . Value?
Response: -0.141

Query: Endpoint output: composite z-score of C[C@@H]1CC[C@H]2C(=O)O[C@@H](COc3ccc(C(C)(C)C)cc3)CN2[C@H]1c1ccc(Br)cc1 . Value?
Response: -0.103

Query: Endpoint output: composite z-score of Cc1cc(C)c(-c2cc([C@H](C)ON=C[C@@H](C)[C@H](OCc3ccccc3)C(C)C)on2)c(C)c1 . Value?
Response: -0.0901

Query: Endpoint output: composite z-score of C[C@@H]1C=CCC(=O)OC[C@H](C)C(=O)N[C@@H](Cc2ccccc2)C(=O)OC1 . Value?
Response: -0.245

Query: Endpoint output: composite z-score of C[C@H]1CC[C@H]2C(=O)O[C@H](CO)CN2[C@@H]1c1ccc(Br)cc1 . Value?
Response: -0.166
